Listing: pre-steady-state target cleavage rate of selected sequences
# System: EfPiwi piRISC loaded with L1MC piRNA (26 nt)
# Method summary: pre-steady-state target cleavage rate (min^-1); auxiliary factor: 500 nM Ephydatia muelleri Gtsf1; guide: L1MC piRNA 5'p-UAACUAAAUACUAUGCAAGCUGUAGG; MIWI and MILI are mouse PIWI proteins and EfPiwi is from a freshwater sponge; tags in brackets are library labels; higher = faster piRNA-guided slicing of the target
Quantity measured: pre-steady-state target cleavage rate

UCCUCCUACAGCUAGCAUUGUAUUUAGUUA | 0.0127
UCCUGGAACUGCUUGCAUAGUAUUUAGAUA | 0.00297
UCCUGCUACAGCUUGCAUAGUAUUUACGUUA | 0.00429
UCCUGGAUGUCCUUGCAUACUAUUUAGUUA | 0.00333
UCCUGGAUCAGCAUGCAUAGUAUUUAGAAA | 0.00356
UCCUGCUACAGCGUUGCAUAGUAUUUAGUUA | 0.0103
UCCUGGUUGAGCUUGCAUAGUAUUUAGUAA | 0.00604
UCCUCCUACAGCAUGCAUACUAUUUAGUUA | 0.00724
UCCUGCUAGAGCUUGCAUAGUAUUAAGUUA | 0.00624
UCCUGGUACUGGUUGCAUAGUAUUUAGUUA | 0.0054
UCCUGGAUGAGCCUUGCAUAGUAUUUAGUUA | 0.00885
UCCUGCUACAGCUUGCAUAGUAUUUCAGUUA | 0.00522
UCCUGGAACUGCUUGCAUUGUAUUUAGUUA | 0.00574
UCCUGCUACAGCUUGCAUAGUUAUUAGUUA | 0.00354
UCCUGCUACACCUUGCAUAGUAUUUUGUUA | 0.00317
UCCUCCUACAGCUAGCAUACUAUUUAGUUA | 0.00634
UCCUGGUACAGCUUGCAUAGUAUUUAGUA | 0.00657
UCCUGCUACAGCUUGCAAAGUAUUUUGUUA | 0.00625
UCCUCCUACAGCUUGCAUAGUAUAUUCAAA | 0.00316
UCCUGGAACAGCUUGCAUAGUAUUAUAGUUA | 0.0399
UCCUCCUACAGCUAGCAAAGUAUUUAGUUA | 0.0276
UCCUGCUACAGCUUGCAGUAGUAUUUAGUUA | 0.0051
UCCUGGAUGUGCUUGCAUAGUAUUUGGUUA | 0.00579
UCCUGCUUCAGCUUGGAUAGUAUUUAGUUA | 0.0331
UCCUGCUACUGCUUGCAUAGUAUUUACAAA | 0.00262
UCCUGGUACAGCUUGCGAUAGUAUUUAGUUA | 0.00543
UCCUCCUACAGCUUGCUAUAGUAUUUAGUUA | 0.00859
UCCUGGUUGUGCUUGCAUAGUAUUUAGAAA | 0.00415
UCCUGGAACAGCUUGCAUAGUAUUAUGAAA | 0.00336
UCCUGCUACAGCUUGCAUAGUAUAUAGUAA | 0.00354
UCCUGGAAGAGCUUGCAUAGUAUUUACAAA | 0.00396
UCCUCCUACAGCUUGCAUAGUAUUAAGUUA | 0.00589
UCCUGGAUGAGCUUGCGAUAGUAUUUAGUUA | 0.00307
UCCUGCUUCAGCUUGCAUAGAAUUUAGUUA | 0.00544
UCCUGGAUCAGCUUGCAUAGUAUCUUAGUUA | 0.0248
UCCUGGACCAGCUUGCAUAGUAUUUAGUUA | 0.159
UCCUCCUACAGCUUGCAUAGUAUAUUGUUA | 0.00489
UCCUGGAUCAGCUUGCAUAGUAUGUAGUUA | 0.0171
UCCUGCUACAGCUUGCAUAGUAUCUAGUUA | 0.00723
UCCUCCUACAGCUUGGAUUGUAUUUAGUUA | 0.0225
UCCUGGAUGUGCUGGCAUAGUAUUUAGUUA | 0.00525
UCCUCCUACAGCUUGCAUAGUUUUUACUUA | 0.00304
UCCUGGAACAGCUUGGAAAGUAUUUAGUUA | 0.0164
UCCUCCUACAGCUUGCAUACUAUUAAGUUA | 0.00391
UCCUCCUUCAGCUUGCAAAGUAUUUAGUUA | 0.0828
UCCUGGUACAGCAUUGCAUAGUAUUUAGUUA | 0.0107
UCCUCCUACAGCUAGCAUAGUAUUUAGUUA | 0.0119
UCCUCGAUCAGCUUGCAUAGUAUUUAGAAA | 0.00579
UCCUCCUACAGCUUGCAUAGUAAAAACAAA | 0.00389
UCCUGGAUGAGCUUGCAUACUAUUUAGAAA | 0.00478
UCCUGGAACAGCAUGCAUAGUAUAUAGUUA | 0.0106
UCCUGGUACUGCAUGCAUAGUAUUUAGUUA | 0.0111
UCCUGCUACUCCUUGCAUAGUAUUUAGAAA | 0.00264
